# Experimental system: St-B17 serotonin receptor (Rattus norvegicus, UniProt P31388)
# Construct: expressed in transfected cells; host or cells: Cos-7 cells, transient transfection, crude membranes
# Assay notes: [125I]-LSD competition binding, Cos-7 cell membranes expressing St-B17
# Test parameters: 0.5 nM [125I]-LSD, Cos-7 membranes, n=3, Cheng-Prussoff from IC50; read-out: Ki vs. [125I]-LSD, Mean ± SEM
// log10 of Ki lookup, one value per entry
On a log10 scale: recorded Ki, unit nM.

CN1CCN(c2nc3cc(C(F)(F)F)ccc3n3cccc23)CC1.O=C(O)/C=C\C(=O)O.O=C(O)/C=C\C(=O)O [CGS 12066B] : 2.87
CNCCc1c[nH]c2ccc(O)cc12 [5-Hydroxy-N,ω-methyltryptamine] : 1.76
CN1C[C@@H](NS(=O)(=O)N(C)C)C[C@@H]2c3cccc4c3c(cn4C)C[C@H]21 : 3.24

Now consider the entry below.
Entry CNCCC=C1c2ccccc2CCc2ccccc21 , tested on St-B17 serotonin receptor (Rattus norvegicus, UniProt P31388), has a reported log10 of Ki of 2.17

* * *

# Experimental system: St-B17 stably expressed in HEK-293 cells (Rattus norvegicus, UniProt P31388, L57V)
# Sequence (P31388 with tags, fused parts or gaps L57V): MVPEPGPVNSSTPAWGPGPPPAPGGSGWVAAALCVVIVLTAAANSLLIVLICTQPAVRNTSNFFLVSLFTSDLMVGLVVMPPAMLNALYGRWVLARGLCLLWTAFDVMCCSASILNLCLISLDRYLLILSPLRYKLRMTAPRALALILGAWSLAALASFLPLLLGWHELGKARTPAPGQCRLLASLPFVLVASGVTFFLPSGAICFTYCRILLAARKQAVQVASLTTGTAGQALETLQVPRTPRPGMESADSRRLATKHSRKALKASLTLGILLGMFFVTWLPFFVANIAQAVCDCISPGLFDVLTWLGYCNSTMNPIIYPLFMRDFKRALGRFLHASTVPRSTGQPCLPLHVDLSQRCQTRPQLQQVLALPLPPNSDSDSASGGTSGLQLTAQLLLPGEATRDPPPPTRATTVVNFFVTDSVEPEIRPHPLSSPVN
# Assay notes: cAMP accumulation in intact HEK-293 cells stably expressing St-B17
Property label: EC50

Entry under test: NCCc1c[nH]c2ccc(O)cc12 [5-HT, 5-hydroxytryptamine] . Its EC50 was 0.145 µM

* * *

# Experimental system: St-B17 serotonin receptor (Rattus norvegicus, UniProt P31388, L57V)
# Assay notes: [125I]-LSD competition binding, Cos-7 cell membranes expressing St-B17
# Set-up: expressed in transfected cells; host or cells: Cos-7 cells, transient transfection, crude membranes
# Test parameters: Ki vs. [125I]-LSD, Mean ± SEM, 0.5 nM [125I]-LSD, Cos-7 membranes, n=3, Cheng-Prussoff from IC50
Recorded Ki by entry
Numeric answer plus unit only.

Note to self: Ki recorded for CN1C[C@H](C(=O)N[C@]2(C)O[C@@]3(O)[C@@H]4CCCN4C(=O)[C@H](Cc4ccccc4)N3C2=O)C[C@@H]2c3cccc4[nH]cc(c34)C[C@H]21 [Dihydroergotamine] was 13.1 nM

The compound listed as c1ccc2c(N3CCNCC3)cccc2c1 shows Ki equal to 104 nM

Record COc1ccc2[nH]cc(CCN(C)C)c2c1 , field Ki: 79.8 nM

Lab book: Ki of COc1ccc2[nH]cc(CCN)c2c1 noted as 38.9 nM

What the record says about FC(F)(F)c1cccc(N2CCNCC2)c1 : Ki is 482 nM

So for NCCc1c[nH]c2ccc(OCc3ccccc3)cc12 , the logged Ki turned out to be 110 nM

Reported Ki of CC(C)C[C@H]1C(=O)N2CCC[C@H]2[C@]2(O)O[C@](NC(=O)[C@@H]3C[C@@H]4c5cccc6[nH]cc(c56)C[C@H]4N(C)C3)(C(C)C)C(=O)N12 [Dihydroergocryptine] : 161 nM

* * *

Listing of recorded Ki by entry.
# Experimental system: St-B17 serotonin receptor (Rattus norvegicus, UniProt P31388, L57V)
# Assay notes: [125I]-LSD competition binding, Cos-7 cell membranes expressing St-B17
# Design: expressed in transfected cells; host or cells: Cos-7 cells, transient transfection, crude membranes
# Test parameters: screened compounds; radioligand not restated; read-out: inhibition constant (Ki)

NCC(O)c1ccc(O)cc1 (stereo not drawn) : > 10 µM
O=C(CCCN1CCC2(CC1)C(=O)NCN2c1ccccc1)c1ccc(F)cc1 : > 10 µM
COc1cc(N)c(Cl)cc1C(=O)NC1CN2CCC1CC2 (stereo not drawn) [zacopride] : > 10 µM
NCCc1c[nH]cn1 : > 10 µM
COc1cc(N)c(Cl)cc1C(=O)NC1CCN2CCCC1C2 (stereo not drawn) : > 10 µM

# input for lookup
# CC(C)NCC(O)COc1cccc2[nH]ccc12 (stereo not drawn) with St-B17 serotonin receptor (Rattus norvegicus, UniProt P31388, L57V): Ki is > 10 µM

* * *

# Experimental system: St-B17 serotonin receptor (Rattus norvegicus)
# Construct: expressed in transfected cells; host or cells: Cos-7 cells, transient transfection, crude membranes
# Assay notes: [125I]-LSD competition binding, Cos-7 cell membranes expressing St-B17
# Test parameters: 0.5 nM [125I]-LSD, Cos-7 membranes, n=3, Cheng-Prussoff from IC50; read-out: Ki vs. [125I]-LSD, Mean ± SEM
Property label: pKi
Keep it numeric: pKi is minus log10 of the concentration in mol/L.

Look over these answered cases.
CCCN1C[C@H](CSC)C[C@@H]2c3cccc4[nH]cc(c34)C[C@H]21 [Pergolide] : 7.52
CC[C@@H](CO)NC(=O)[C@@H]1C=C2c3cccc4c3c(cn4C)C[C@H]2N(C)C1 [MethyscrGide] : 6.43
CN(C)CCC=C1c2ccccc2CCc2ccccc21 [Amitriptyline] : 7.16
COc1ccccc1N1CCNCC1 [2-MPP] : 5.51
CCN(CC)C(=O)[C@@H]1C=C2c3cccc4[nH]c(Br)c(c34)C[C@H]2N(C)C1 [2-Br-LSD] : 7.77
NCCc1c[nH]c2ccc(C(N)=O)cc12 [5-Carboxamidotryptamine] : 6.11

Field pKi (St-B17 serotonin receptor (Rattus norvegicus)), entry Clc1cccc(N2CCNCC2)c1 [mCPP] : 5.64

Sample Cc1nc2sccn2c(=O)c1CCN1CCC(=C(c2ccc(F)cc2)c2ccc(F)cc2)CC1 [Ritanerin] , system: St-B17 serotonin receptor (Rattus norvegicus). Its pKi is 7.36

Clc1ccc2c(c1)C(N1CCNCC1)=Nc1ccccc1O2 [Amoxipine] on St-B17 serotonin receptor (Rattus norvegicus) gives pKi = 7.52

* * *

# Experimental system: St-B17 serotonin receptor (Rattus norvegicus, UniProt P31388)
# Construct: expressed in transfected cells; host or cells: Cos-7 cells, transient transfection, crude membranes
# Assay notes: [125I]-LSD competition binding, Cos-7 cell membranes expressing St-B17
# Test parameters: 0.5 nM [125I]-LSD, Cos-7 membranes, n=3, Cheng-Prussoff from IC50; read-out: Ki vs. [125I]-LSD, Mean ± SEM
Property label: pKi
pKi (log units): -log10 of the concentration in mol/L.

Nc1ccc(CCN2CCN(c3cccc(C(F)(F)F)c3)CC2)cc1 : 6.09
CN1CCN(C2=Nc3ccccc3Oc3ccc(Cl)cc32)CC1 : 7.19
NCCc1c[nH]c2ccc(O)cc12 [5-HT, 5-hydroxytryptamine] : 6.82

Please turn your attention to the following entry.
In plain terms, CN1C[C@H](CNC(=O)OCc2ccccc2)C[C@@H]2c3cccc4c3c(cn4C)C[C@H]21 has a documented pKi of 7.52

Reference source for all entries: patent US6844190B2
